Value source: PubChem BioAssay (NCI)

Entries and their growth inhibition values follow.
- Experiment summary: NCI Yeast Anticancer Drug Screen. Data for the cln2 rad14 strain (AID 165);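 also: 0% = growth equal to vehicle treated cultures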
- Condition summary: S. cerevisiae cln2 rad14 strain, at 50.0 µM, hits give high values
This is part of a sample that, as a whole, favours compounds with a hit. Of some 79,000 tested, about 15% had one in any assay. Activity calls are given as the source filed them. Rule as the data show it: active = growth inhibition above about 70%; inactive = the rest. Where a SMILES comes first, the peptide text is derived from it. Bridges are numbered along the chain shown (N, C = ends). [ ]: non-standard residue; d: D form. The star is where a group is joined. PhAc = O=C(Cc1ccccc1)*
Attribute measured: growth inhibition

{"Compound": "Cc1nc(C(=O)O)ccc1O", "Attribute measured": "growth inhibition", "Recorded value": "-3.2% (inactive)"}
{"Compound": "OCCCCCCCCCCCBr", "Attribute measured": "growth inhibition", "Recorded value": "-27.1% (inactive)"}
{"Compound": "CC(=O)Oc1ccc([N+](=O)[O-])cc1", "Attribute measured": "growth inhibition", "Recorded value": "-17.7% (inactive)"}
{"Compound": "CN(N=Nc1ccc(C#N)cc1)C(C)(C)C", "Attribute measured": "growth inhibition", "Recorded value": "-5.85% (inactive)"}
{"Compound": "O=C(Cc1ccccc1)N[C@@H]1COC(=O)[C@@H]2CCCN2C(=O)[C@@H]2CCCN2C1=O (PhAc-[dS]-Pro-Pro; ester 1-C)", "Attribute measured": "growth inhibition", "Recorded value": "27.4% (inactive)"}
{"Compound": "NC(CC1C=CCCC1)C(=O)O (configuration not stated)", "Attribute measured": "growth inhibition", "Recorded value": "-52.3% (inactive)"}
{"Compound": "CCOC(=O)c1ccc(OC)cc1", "Attribute measured": "growth inhibition", "Recorded value": "2.8% (inactive)"}
{"Compound": "CC(O)C1CCCCN1 (configuration not stated)", "Attribute measured": "growth inhibition", "Recorded value": "10.4% (inactive)"}
{"Compound": "C[C@@H](O)CO", "Attribute measured": "growth inhibition", "Recorded value": "3.75% (inactive)"}
{"Compound": "NC(=O)Nc1nc(-c2ccccc2)no1", "Attribute measured": "growth inhibition", "Recorded value": "-50.6% (inactive)"}
{"Compound": "O=C1OCC=C1COC1OC(CO)C(O)C(O)C1O (configuration not stated)", "Attribute measured": "growth inhibition", "Recorded value": "5.05% (inactive)"}
{"Compound": "O=C(CCSC(=S)Nc1ccc(Cl)cc1)NNc1ccccc1", "Attribute measured": "growth inhibition", "Recorded value": "-30.4% (inactive)"}
{"Compound": "CCOC(=O)/C(=C/c1ccc(C#N)cc1)N(CC)CC", "Attribute measured": "growth inhibition", "Recorded value": "24.4% (inactive)"}
{"Compound": "O=Cc1ccc(N2OC(c3ccc([N+](=O)[O-])cc3)C(c3ccc([N+](=O)[O-])cc3)C2c2ccc([N+](=O)[O-])cc2)cc1 (configuration not stated)", "Attribute measured": "growth inhibition", "Recorded value": "25.4% (inactive)"}
{"Compound": "Cc1ccccc1NN", "Attribute measured": "growth inhibition", "Recorded value": "-2.6% (inactive)"}
{"Compound": "O=C(O)CCNc1ncnc2nc[nH]c12", "Attribute measured": "growth inhibition", "Recorded value": "-34.6% (inactive)"}
{"Compound": "C[C@]1(CO)CCC[C@@]2(C)C1CC[C@H]1CC3C[C@]12CC[C@]3(C)O (some centres not stated)", "Attribute measured": "growth inhibition", "Recorded value": "28.4% (inactive)"}
{"Compound": "Nc1ccc(C(=O)NN2C(=O)C(Cl)C2c2cc(Br)ccc2O)cc1 (configuration not stated)", "Attribute measured": "growth inhibition", "Recorded value": "-32.1% (inactive)"}
{"Compound": "COc1ccc(C2COc3c(ccc(OC)c3OC)C2=O)cc1OC (configuration not stated)", "Attribute measured": "growth inhibition", "Recorded value": "-6.5% (inactive)"}
{"Compound": "Nc1ccccc1SC1CC(=O)N(c2ccc(Oc3ccc(Cl)cc3)cc2)C1=O (configuration not stated)", "Attribute measured": "growth inhibition", "Recorded value": "-12.2% (inactive)"}
{"Compound": "Cc1ccc(S(=O)(=O)Cc2c(C)cc(C)cc2C)cc1", "Attribute measured": "growth inhibition", "Recorded value": "-30.9% (inactive)"}
{"Compound": "CC(C)CCC(=O)O", "Attribute measured": "growth inhibition", "Recorded value": "-9.6% (inactive)"}
{"Compound": "O=C(NCC1CC1)NC(=O)c1c(F)cccc1Cl", "Attribute measured": "growth inhibition", "Recorded value": "20.8% (inactive)"}
{"Compound": "CCOC(C[N+](C)(C)C)OCC", "Attribute measured": "growth inhibition", "Recorded value": "8% (inactive)"}
{"Compound": "CCC1N=C(N)N=C(N)N1c1ccc(Cl)c(Cl)c1 (configuration not stated)", "Attribute measured": "growth inhibition", "Recorded value": "-8.7% (inactive)"}
{"Compound": "COC(=O)C(C)C1Sc2ccccc2NC1=O (configuration not stated)", "Attribute measured": "growth inhibition", "Recorded value": "-4% (inactive)"}
{"Compound": "CC1=C(CCC(C)N)C(C)(C)CCC1 (configuration not stated)", "Attribute measured": "growth inhibition", "Recorded value": "7.75% (inactive)"}
